Measured values drawn from ChEMBL document CHEMBL3885881 for this set.

species on record: Rattus norvegicus; test: DrugMatrix - Regimen: Daily Repeat; assay type: toxicity, organism-based, Sprague-Dawley; parameters: regimen Daily Repeat, gender Male, age 6-8 weeks; conditions: in vivo, po, 0 mg/kg, 120 h, tissue Blood, route oral GAVAGE, dose level Control, time 5 day, […]
Below: a set of entries, each annotated with reported EOSINOPHIL.
Lab note: write values as number then unit, every time.

Would you please look over these solved cases?
MOLECULE	EOSINOPHIL
CC(CCc1ccc(O)cc1)NCCc1ccc(O)c(O)c1 (stereo unspecified)	0.5%
C#C[C@]1(O)CC[C@H]2[C@@H]3CCc4cc(O)ccc4[C@H]3CC[C@@]21C	1.83%
COc1ncnc(NS(=O)(=O)c2ccc(N)cc2)c1OC	0%
CC[C@H](C)C(=O)O[C@H]1C[C@@H](C)C=C2C=C[C@H](C)[C@H](CC[C@@H]3C[C@@H](O)CC(=O)O3)[C@H]21	0%

Prompt: Suppose we examine the molecule CS(=O)(=O)OCCCCOS(C)(=O)=O ; what EOSINOPHIL value has been reported?
Response: 0%

Prompt: Now the same for OCCN1CCN(CCCN2c3ccccc3Sc3ccc(C(F)(F)F)cc32)CC1
Response: 0%
